Numbers sourced from patent US10150737B2.

- Assay Remarks: logP determination by HPLC on a reversed-phase column (C18)
- Type: physicochemical
- Recorded Conditions: HPLC-MS, reversed-phase column (C18); Table I-T3
Measure: log P
Please reply with the value in numeric form only.

{"Compound": "O=C(NC1CC1)c1cc(-c2cnn(-c3c(Cl)cc(C(F)(C(F)(F)F)C(F)(F)F)cc3C(F)(F)F)c2)cnc1Cl [I-T3-112]", "log P": 4.0}
{"Compound": "Cc1cc(C(F)(C(F)(F)F)C(F)(F)F)cc(I)c1-n1cc(-c2ccc(Cl)c(C(=O)NC3(C#N)CC3)c2)cn1 [I-T3-176]", "log P": 4.4}
{"Compound": "CN(C(=O)c1cc(-c2cnn(-c3c(Cl)cc(C(F)(C(F)(F)F)C(F)(F)F)cc3C(F)(F)F)c2)cnc1Cl)C1CC1 [I-T3-113]", "log P": 4.0}
{"Compound": "Cc1cc(C(F)(C(F)(F)F)C(F)(F)F)cc(C)c1-n1cc(-c2cnc(C3CC3)c(C(=O)NC3(C#N)CC3)c2)cn1 [I-T3-139]", "log P": 4.1}
{"Compound": "COc1ncc(-c2cnn(-c3c(C)cc(C(F)(C(F)(F)F)C(F)(F)F)cc3C)c2)cc1C(=O)N(C)C1CC1 [I-T3-144]", "log P": 4.4}

Record summary for CN(C(=O)c1cc(-c2cnn(-c3c(Cl)cc(C(F)(C(F)(F)F)C(F)(F)F)cc3OC(F)(F)F)c2)cnc1Cl)C1CC1 [I-T3-208] : reported log P = 4.6

Memo: CCOc1cc(C(F)(C(F)(F)F)C(F)(F)F)cc(OCC)c1-n1cc(-c2cnc(Cl)c(C(=O)N(C)C3CC3)c2)cn1 [I-T3-211] , reported log P: 4.7
